Cited source for all entries: patent US12195427B2

Give d(H4,O2) for every item shown.
- target.entity: MASP-2 CCP2-SP (Homo sapiens (Human))
- Sequence (O00187 445-686): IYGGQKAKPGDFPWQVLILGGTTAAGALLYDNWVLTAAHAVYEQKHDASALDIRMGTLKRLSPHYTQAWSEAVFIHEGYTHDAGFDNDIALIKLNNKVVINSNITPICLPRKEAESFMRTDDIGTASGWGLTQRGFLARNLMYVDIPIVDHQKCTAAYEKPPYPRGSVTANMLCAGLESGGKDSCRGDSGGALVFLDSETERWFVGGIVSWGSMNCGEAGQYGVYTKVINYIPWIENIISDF
- Sequence (O00187 364-432 partner): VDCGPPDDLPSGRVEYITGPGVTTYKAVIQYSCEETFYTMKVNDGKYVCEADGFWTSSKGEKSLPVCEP
- test.description: MASP-2 co-crystallization, X-ray crystallography and structure analysis (H-bonds, van der Waals contacts)
- Set-up: unit not given beside the values
- condition.context: Table A5-1 pharmacophore: distance between elements, S2/S1 region
# output: bare number, no unit

Given C[C@H](NC(=O)C1C[C@@H](c2ccccc2)CCN1)C(=O)NCc1ccc(C(=N)N)cc1 (stereo in doubt) , state its recorded d(H4,O2).
3.82

Given Cc1nc(N)ccc1CNC(=O)C(C)NC(=O)[C@H]1C[C@H](c2cccc(-c3ccccc3)c2)CN1 (stereo in doubt) , state its recorded d(H4,O2).
3.80

Given C[C@H](NC(=O)[C@H]1C[C@@H](c2ccccc2)CN1)C(=O)NCc1ccc2c(N)nccc2c1.Cl.Cl [1089_A] , state its recorded d(H4,O2).
3.70

Given Cc1nc(N)ccc1CNC(=O)C(C)NC(=O)C1CC(c2cccc3ccccc23)CCN1.Cl.Cl (stereo not shown) [1297_3] , state its recorded d(H4,O2).
3.85

Given C[C@H](NC(=O)[C@H]1C[C@@H](c2ccccc2)CCN1)C(=O)NCc1cc(Cl)ccc1O.Cl [1078_7] , state its recorded d(H4,O2).
2.49

Given C[C@H](NC(=O)[C@H]1C[C@H](Cc2ccccc2)CN1)C(=O)NCc1cnc2[nH]cc(Cl)c2c1 , state its recorded d(H4,O2).
3.74

Given C[C@H](NC(=O)[C@H]1C[C@@H](c2ccccc2)CCN1)C(=O)NCc1cc(Cl)ccc1O.Cl [1078_15] , state its recorded d(H4,O2).
2.49
